FYI, the data here is from patent US7871628B2.

target: mAb 2C7; experiment: Inhibition ELISA: linear peptide or MAPs inhibiting mAb 2C7 binding to LOS; details: mAb 2C7 stock 0.4 μg/ml; LOS of strain 15253 coated plates; read-out: half maximal inhibition (IC50) of mAb 2C7 binding to LOS
readout name: IC50 (nM)
Report the value in nM with no unit label.

For orientation, consider the following solved cases.
CGPIPVLDENGLFAPGPC [Tetra-MAP1] :: 1260
linear PEP1: linear PEP1 peptide compared with the MAPs in inhibition ELISA (IPVLDENGLFAP) :: 55000

# evaluate next
The reported value for CGPIPVLDENGLFAPGPC [Octa-MAP1] in terms of IC50 is 230
